Where do the numbers come from? From ChEMBL document CHEMBL3108701.

- experimental target: Arginase (Leishmania amazonensis, UniProt O96394)
- measurement notes: Inhibition of Leishmania amazonensis recombinant arginase expressed in Escherichia coli Rosetta (DE3) pLysS using L-arginine as substrate incubated for 10 mins prior to substrate addition measured after 10 mins by colorimetry
Below: a set of entries, each annotated with reported log10 IC50.
Response schema: value (number) is log10 of IC50 in units of µM.

1. COc1cc(-c2oc3cc(OC)c(OC)c(OC)c3c(=O)c2OC)cc(OC)c1OC    2.11

Prompt line: Find the measured log10 IC50: item O=c1c(O)c(-c2ccc(O)c(O)c2)oc2cc(O)cc(O)c12 , target or system Arginase (Leishmania amazonensis, UniProt O96394).
Response line: 0.60

Prompt line: Field entry: O=c1c(O)c(-c2cc(O)c(O)c(O)c2)oc2cc(O)cc(O)c12
Response line: 0.32

Prompt line: Next compound up: COC1=Cc2c(cc(OC)c3cc(C)c(OC)cc23)C(C)(C)C1=O
Response line: 1.22

Prompt line: Can you check COc1cc([C@H]2OC[C@H]3[C@@H]2CO[C@@H]3c2cc(OC)c(O)c(OC)c2)cc(OC)c1O next?
Response line: 1.14

Prompt line: Also Oc1cc(O)c2c(c1)O[C@H](c1ccc(O)c(O)c1)[C@@H](O)C2 , if possible.
Response line: 0.23

Prompt line: And what about the compound CC(=O)Oc1cc(OC(C)=O)c2c(=O)c(OC(C)=O)c(-c3ccc(OC(C)=O)c(OC(C)=O)c3)oc2c1 ?
Response line: 2.08

Prompt line: What do we get for COc1ccc(-c2oc3cc(O)cc(O)c3c(=O)c2O[C@@H]2O[C@@H](C)[C@H](O)[C@@H](O)[C@H]2O)cc1O ?
Response line: 1.94

---

Below, each entry is listed alongside its reported Ki.
- experimental target: Arginase (Leishmania amazonensis, UniProt O96394)
- measurement notes: Noncompetitive inhibition of Leishmania amazonensis recombinant arginase expressed in Escherichia coli Rosetta (DE3) pLysS using L-arginine as substrate by Dixon reciprocal plot analysis
Give the value, in units of nM, as a plain number.

Example cases with answers are listed next.
1) Oc1cc(O)c2c(c1)O[C@H](c1ccc(O)c(O)c1)[C@H](O)C2 [(-)-EPICATECHIN]    200
2) Oc1cc(O)c2c(c1)O[C@H](c1ccc(O)c(O)c1)[C@@H](O)C2 [CIANIDANOL]    600
3) C[C@H]1O[C@H](Oc2c(-c3cc(O)c(O)c(O)c3)oc3cc(O)cc(O)c3c2=O)[C@@H](O)[C@@H](O)[C@@H]1O    3800
4) C[C@@H]1O[C@@H](Oc2c(-c3ccc(O)c(O)c3)oc3cc(O)cc(O)c3c2=O)[C@H](O)[C@H](O)[C@H]1O [QUERCITRIN]    7900

Please turn your attention to the following entry.
Prompt line: Please give the measured Ki for this molecule: O=c1c(O)c(-c2cc(O)c(O)c(O)c2)oc2cc(O)cc(O)c12 [MYRICETIN]
Response line: 1200

---

- experimental target: Arginase (Leishmania amazonensis, UniProt O96394)
- measurement notes: Inhibition of Leishmania amazonensis recombinant arginase expressed in Escherichia coli Rosetta (DE3) pLysS using L-arginine as substrate incubated for 10 mins prior to substrate addition measured after 10 mins by colorimetry
measure: pIC50
pIC50 here is simply -log10 of the concentration when that concentration is written in mol/L.

As a guide, the following entries are already answered.
1) Oc1cc(O)c2c(c1)O[C@H](c1ccc(O)c(O)c1)[C@H](O)C2 [(-)-EPICATECHIN]    5.80
2) C[C@@H]1O[C@@H](O[C@@H]2Cc3c(O)cc(O)cc3O[C@H]2c2ccc(O)c(O)c2)[C@H](O)[C@H](O)[C@H]1O    4.45
3) O=c1c(O)c(-c2ccc(O)cc2)oc2cc(O)cc(O)c12    4.26
4) O=c1c(O[C@@H]2O[C@H](CO)[C@@H](O)[C@H](O)[C@H]2O)c(-c2ccc(O)c(O)c2)oc2cc(O)cc(O)c12    5.70
5) C[C@@H]1O[C@@H](Oc2c(-c3ccc(O)c(O)c3)oc3cc(O)cc(O)c3c2=O)[C@H](O)[C@H](O)[C@H]1O    4.91
6) COc1c(O)cc(-c2oc3cc(O)cc(O)c3c(=O)c2O[C@@H]2O[C@@H](C)[C@H](O)[C@@H](O)[C@H]2O)cc1O    3.65

Next, consider the following compound.
Prompt line: // query pIC50 value for entry C[C@H]1O[C@H](Oc2c(-c3cc(O)c(O)c(O)c3)oc3cc(O)cc(O)c3c2=O)[C@@H](O)[C@@H](O)[C@@H]1O
Response line: 5.62
